conditions: in PEGDME 250, 303.15 K
OBSERVABLE: solubility (mole fraction)

P: O=C(O)c1ccccc1O
Q: CC(=O)Nc1ccc(O)cc1
Between these two entries, P and Q , state which has the higher solubility (mole fraction). Your answer should be the label of the entry you select.
P
(P: 0.415, Q: 0.196)

---

conditions: in PEGDME 250, 298.15 K
OBSERVABLE: solubility (mole fraction)

I: CC(=O)Nc1ccc(O)cc1
II: O=C(O)c1ccccc1O
Of I and II , which carries the smaller reported solubility (mole fraction) figure? Your answer should be the label of the entry you select.
I
(I: 0.174, II: 0.382)
